Recorded pIC50 for the following compounds
biological target: human mPGES-1 (Homo sapiens)
Bear in mind: pIC50 is minus log10 of a mol/L concentration; give just that figure.

Examples from the recorded data:
# Compound, pIC50
records = [
    ("NS(=O)(=O)c1ccccc1NS(=O)(=O)/C=C/c1cccc(C(F)(F)F)c1 [Example 192]", 5.49),
    ("CN(C)c1ccc(-c2cccc(S(=O)(=O)Nc3ccccc3S(N)(=O)=O)c2)cn1 [Example 170]", 6.54),
]

Q. Return pIC50 measured with human mPGES-1 (Homo sapiens) given this compound: NS(=O)(=O)c1cc(Br)ccc1NS(=O)(=O)c1cccc(-c2ccc(Cl)c(Cl)c2)c1 [Example 144]
A. 5.96

Q. Return pIC50 measured with human mPGES-1 (Homo sapiens) given this compound: COc1ncc(-c2cccc(S(=O)(=O)Nc3ccccc3S(N)(=O)=O)c2)cn1 [Example 165]
A. 5.64

Q. Return pIC50 measured with human mPGES-1 (Homo sapiens) given this compound: Cc1ccc(NS(=O)(=O)/C=C/c2ccc3ccccc3c2)c(S(N)(=O)=O)c1 [Example 96]
A. 5.32

Q. Return pIC50 measured with human mPGES-1 (Homo sapiens) given this compound: NS(=O)(=O)c1ccc(Cl)cc1NS(=O)(=O)CCc1ccc(OC(F)F)cc1 [Example 226]
A. 5.89

Q. Return pIC50 measured with human mPGES-1 (Homo sapiens) given this compound: C/C(=C\c1ccc(Cl)cc1)S(=O)(=O)Nc1cc(F)ccc1S(N)(=O)=O [Example 11]
A. 6.23

Q. Return pIC50 measured with human mPGES-1 (Homo sapiens) given this compound: NS(=O)(=O)c1ccccc1NS(=O)(=O)/C=C/c1ccccc1 [Example 75]
A. 5.59

---

Molecular target: UniProtKB O14684
Sequence (O14684 1-152): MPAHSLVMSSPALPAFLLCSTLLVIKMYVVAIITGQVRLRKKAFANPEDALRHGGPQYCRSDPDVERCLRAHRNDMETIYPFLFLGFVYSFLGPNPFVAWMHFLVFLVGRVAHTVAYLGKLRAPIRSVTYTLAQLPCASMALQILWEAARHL
Labelling field: enter yes (1) if recorded IC50 is less than 5000 nM. Enter no (0) if it equals or exceeds that cut-off.

# Compound, Class Assignment
records = [
    ("NS(=O)(=O)c1cc(F)cc(F)c1NS(=O)(=O)CCc1ccc(Cl)c(Cl)c1 [Example 229]", "no (0)"),
    ("NS(=O)(=O)c1ccccc1NS(=O)(=O)c1cccc(-c2ccc(CO)cc2)c1 [Example 172]", "no (0)"),
    ("NS(=O)(=O)c1cc(CO)ccc1NS(=O)(=O)c1cccc(Cl)c1Cl [Example 153]", "yes (1)"),
]

Q. Threshold test, IC50 < 5000 nM: NS(=O)(=O)c1ccccc1NS(=O)(=O)/C=C/c1ccc(OC(F)F)cc1 [Example 20]
A. yes (1)

Q. Threshold test, IC50 < 5000 nM: NS(=O)(=O)c1cc(F)ccc1NS(=O)(=O)/C=C/c1ccc(C(F)(F)F)cc1 [Example 101]
A. yes (1)

Q. Threshold test, IC50 < 5000 nM: Cc1ccc(NS(=O)(=O)CCc2ccc(Br)cc2)c(S(N)(=O)=O)c1 [Example 189]
A. yes (1)

Q. Threshold test, IC50 < 5000 nM: NS(=O)(=O)c1cc(F)ccc1NS(=O)(=O)/C=C/c1ccc(-c2cc3ccccc3o2)cc1 [Example 4]
A. yes (1)
